- Assay System: kinases (Homo sapiens, UniProt P36888, D835H)
- Construct: purchased Eurofins/DiscoveRx; host or cells: E. coli BL21-derived host (T7 phage display) for most kinases; HEK-293 for the rest
- Assay Protocol: KINOMEscan kinase binding assay (Eurofins/DiscoveRx), % Ctrl
- Run Conditions: 1 μM; FLT3(D835H)
Assay Metric: % Ctrl, FLT3(D835H) (% Ctrl)

P = Cc1cc2c([nH]1)/C=C1\C(=O)Nc3ccc(cc31)OCCOCCNC2=O
Q = Cc1cc2c([nH]1)/C=C1\C(=O)Nc3ccc(cc31)-c1cnn(C)c1COCCN(C)C2=O
Which of the two gives a bigger number for % Ctrl, FLT3(D835H): P or Q ? Identify your pick by its label.
P

* * *

- Assay System: kinases (Homo sapiens, UniProt P10721, D816V)
- Construct: purchased Eurofins/DiscoveRx; host or cells: E. coli BL21-derived host (T7 phage display) for most kinases; HEK-293 for the rest
- Sequence (P10721 26-976 D816V): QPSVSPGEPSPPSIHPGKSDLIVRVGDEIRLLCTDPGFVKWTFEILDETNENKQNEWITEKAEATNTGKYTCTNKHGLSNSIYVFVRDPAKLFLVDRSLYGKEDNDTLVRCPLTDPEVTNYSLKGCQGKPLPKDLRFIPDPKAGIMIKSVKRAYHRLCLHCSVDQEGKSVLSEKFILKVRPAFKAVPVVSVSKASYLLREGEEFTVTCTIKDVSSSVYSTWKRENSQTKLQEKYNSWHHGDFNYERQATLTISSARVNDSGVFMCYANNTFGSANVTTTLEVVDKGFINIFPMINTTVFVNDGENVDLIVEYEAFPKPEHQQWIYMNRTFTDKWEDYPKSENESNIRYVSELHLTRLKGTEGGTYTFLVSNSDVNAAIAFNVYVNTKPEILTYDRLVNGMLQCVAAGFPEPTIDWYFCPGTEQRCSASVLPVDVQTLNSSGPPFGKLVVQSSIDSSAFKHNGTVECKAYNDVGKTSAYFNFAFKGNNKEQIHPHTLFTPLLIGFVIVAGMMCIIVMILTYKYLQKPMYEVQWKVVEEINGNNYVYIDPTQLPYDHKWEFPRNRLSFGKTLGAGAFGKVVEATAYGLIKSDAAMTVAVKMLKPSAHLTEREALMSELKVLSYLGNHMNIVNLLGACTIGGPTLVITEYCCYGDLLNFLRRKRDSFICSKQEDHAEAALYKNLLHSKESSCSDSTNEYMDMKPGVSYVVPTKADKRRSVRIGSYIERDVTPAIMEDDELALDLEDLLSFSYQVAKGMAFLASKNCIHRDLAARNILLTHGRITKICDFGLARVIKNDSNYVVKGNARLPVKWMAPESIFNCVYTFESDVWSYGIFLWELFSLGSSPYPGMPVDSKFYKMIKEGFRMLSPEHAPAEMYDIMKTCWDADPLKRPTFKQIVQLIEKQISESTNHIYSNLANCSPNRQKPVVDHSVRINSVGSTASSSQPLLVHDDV
- Assay Protocol: KINOMEscan kinase binding assay (Eurofins/DiscoveRx), % Ctrl
- Run Conditions: target KIT(D816V); 1 μM
Assay Metric: % Ctrl, KIT(D816V) (% Ctrl)

Below, each entry is followed by its recorded % Ctrl, KIT(D816V) result.
Cc1cc2c([nH]1)/C=C1\C(=O)Nc3ccc(cc31)-c1c(C)nn(C)c1COCCN(C)C2=O	80
Cc1cc2c([nH]1)/C=C1\C(=O)Nc3cc(Cl)c(cc31)OCCO[C@@H](C(=O)N1CCN(C)CC1)CN(C)C2=O	100

A = Cc1cc2c([nH]1)/C=C1\C(=O)Nc3ccc(cc31)-c1c(noc1C)CNCCN(C)C2=O
B = CN1CCOCCOc2cc3c(cc2Cl)NC(=O)/C3=C\c2[nH]ccc2C1=O
Lower value for measured % Ctrl, KIT(D816V)? Options: A , B // respond with label for picked entry
B

* * *

- Assay System: kinases (Homo sapiens, UniProt P10721, L576P)
- Construct: purchased Eurofins/DiscoveRx; host or cells: E. coli BL21-derived host (T7 phage display) for most kinases; HEK-293 for the rest
- Sequence (P10721 26-976 L576P): as the sequence (P10721 26-976 D816V) above, with L551P, V791D counted along it
- Assay Protocol: KINOMEscan kinase binding assay (Eurofins/DiscoveRx), % Ctrl
- Run Conditions: target KIT(L576P); 1 μM
Assay Metric: % Ctrl, KIT(L576P) (% Ctrl)

CN1CCSCCOc2cc3c(cc2Cl)NC(=O)/C3=C\c2[nH]ccc2C1=O [Ex. 153]	0.1
Cc1cc2c([nH]1)/C=C1\C(=O)Nc3ccc(cc31)-c1c(noc1C)CNCCN(C)C2=O [Ex. 139]	84

A = Cc1cc2c([nH]1)/C=C1\C(=O)Nc3ccc(cc31)-c1c(C)nn(C)c1COCCN(C)C2=O [Ex. 146]
B = CN1CCOCCOc2cc3c(cc2Cl)NC(=O)/C3=C\c2[nH]ccc2C1=O [Ex. 143]
Higher % Ctrl, KIT(L576P) between A and B ? Please respond with the label that marks your chosen entry.
A

* * *

- Assay System: kinases (Homo sapiens)
- Construct: purchased Eurofins/DiscoveRx; host or cells: E. coli BL21-derived host (T7 phage display) for most kinases; HEK-293 for the rest
- Assay Protocol: KINOMEscan kinase binding assay (Eurofins/DiscoveRx), % Ctrl
- Run Conditions: 1 μM; target PDGFRA
Assay Metric: % Ctrl, PDGFRA (% Ctrl)

Cc1cc2c([nH]1)/C=C1\C(=O)Nc3cnc(cc31)-c1cnn(C)c1CN(C)CCN(C)C2=O [Ex. 172]	44

A = Cc1cc2c([nH]1)/C=C1\C(=O)Nc3ccc(cc31)-c1cnn(C)c1OCCCN(C)C2=O [Ex. 166]
B = Cc1cc2c([nH]1)/C=C1\C(=O)Nc3cc(Cl)c(cc31)SCCOCCN(C)C2=O [Ex. 169]
C = CN1CCOc2cc3c(cc2Cl)NC(=O)/C3=C\c2[nH]ccc2C(=O)N(C)CC1 [Ex. 164]
D = Cc1cc2c([nH]1)/C=C1\C(=O)Nc3ccc(cc31)-c1c(noc1C(C)C)COCCN(C)C2=O [Ex. 161]
rank_up(items): orders items by reported % Ctrl, PDGFRA in ascending numerical order. Order the labels as requested and list them.
B, C, A, D
